Entry source: ChEMBL document CHEMBL5257026

# Assay Comment: Inhibition of DENV3 recombinant NS2B-NS3 protease expressed in Escherichia coli using Abz-RRRRSAG-nY-NH2 as substrate preincubated for 20 mins at 37 degC followed by substrate addition measured after 60 mins by fluorescence spectrophotometric analysis
# Design: species or system dengue virus type 3
Residues, ends and D or L forms follow the SMILES beside them.
Property: pKi
Worth noting: pKi values are minus log10 of concentrations stated in mol/L.

-- ask Consider the compound NC(=O)[C@H](Cc1c[nH]c2ccccc12)NC(=O)[C@H](CS)NC(=O)[C@H](Cc1ccc(O)cc1)NC(=O)[C@@H](N)Cc1c[nH]c2ccccc12 (H-WYCW-NH2) and give its recorded pKi.
-- reply 4.61

###

# Assay Comment: Inhibition of DENV2 NS2B-NS3 protease using Bz-Nle-Lys-Arg-Arg-AMC as substrate preincubated for 15 mins followed by substrate addition by fluorescence assay
# Design: species or system dengue virus type 2
Property: IC50 (µM)
Hi! Could you send only the number? It should be in µM, unit omitted.

-- ask For CCc1ccc(NS(=O)(=O)c2ccc(N3C(=O)c4ccccc4C3=O)cc2)cc1 , write its IC50.
-- reply 48.2

###

Form field: pKi (one value per entry).
# Assay Comment: Inhibition of DENV2 NS2B-NS3 protease using Boc-Gly-Lys-Arg-AMC as substrate incubated for 30 mins by fluorescence assay
# Parameters: species or system dengue virus type 2
Scale explanation: pKi corresponds to minus log10 of a concentration expressed in moles per litre.

-- ask Input O=C1c2c(O)ccc([N+](=O)[O-])c2C(=O)c2c([N+](=O)[O-])ccc(O)c21 , output reported pKi.
-- reply 5.38

-- ask Note down pKi recorded for Cc1cc(=O)cc2oc3cc(N)c(-c4c(C)cc(O)cc4O)c(C)c3nc1-2
-- reply 4.46

###

# Assay Comment: Selectivity index, ratio of CC50 for cytotoxicity against African green monkey Vero cells to EC50 for antiviral activity against DENV4 P11-08 infected in African green monkey Vero cells
# Type: toxicity, cell-based
# Assay Context: read-out: Ratio CC50/EC50
Property: selectivity ratio
Answer field: number only, no words.

-- ask Report selectivity ratio for Cc1ccc(S(=O)(=O)Nc2cc(SCC(=O)O)c(O)c3ccccc23)cc1[N+](=O)[O-]
-- reply 90.8

###

# Lookup of reported Ki keyed by entry
# Assay Comment: Inhibition of DENV2 recombinant NS2B-NS3 protease expressed in Escherichia coli C41 using GRR-AMC as substrate incubated for 15 mins by Lineweaver-Burk plot analysis
# Parameters: species or system dengue virus type 2
Residues, ends and D or L forms follow the SMILES beside them.
Give just the numeric value; µM need not be written.

# example entries with known answers
- Molecule: "CC(=O)N[C@@H](CCCNC(=N)N)C(=O)N[C@H](C(=O)N[C@@H](CO)C(=O)N[C@@H](CCCCN)C(=O)N[C@@H](CCCCN)C(=O)N[C@@H](CCCNC(=N)N)C(N)=O)[C@@H](C)O (Ac-RTSKKR-NH2)"
  Ki (µM): 12.1
- Molecule: "CC(=O)N[C@@H](Cc1ccccc1)C(=O)N[C@@H](C)C(=O)N[C@@H](C)C(=O)NCC(=O)N[C@@H](CCCNC(=N)N)C(=O)N[C@@H](CCCCN)C(N)=O (Ac-FAAGRK-NH2)"
  Ki (µM): 25.9

# next molecule below
-- ask Retrieve Ki measured for CC(=O)NCC(=O)N[C@@H](CCCCN)C(=O)N[C@@H](CCCNC(=N)N)C(N)=O (Ac-Gly-Lys-Arg-NH2) and print it.
-- reply 152
